These data points were gathered from PubChem BioAssay (NCI).

Tested on: DU-145 prostate
Experiment: NCI tumour cell line growth inhibition, 48 h
// TGI lookup, one value per entry

CC(=O)Nc1nc(Cl)cc(NCC2(CO)CCC2)n1    > 100 µM

Q. Return reported TGI; argument: COc1ccc(N=Nc2c(-c3c(OC)cc4occc4c3OC)[nH]c(=O)c(C#N)c2C)cc1
A. > 100 µM

Q. # query: TGI of entry COc1cccc(C2c3cc4c(cc3OC(O)C2C)OCO4)c1OC (centres undefined)
A. 26.2 µM

Q. Query: TGI; subject: OC1(c2ccc(Cl)c(C(F)(F)F)c2)CCN(CCCC(c2ccc(F)cc2)c2ccc(F)cc2)CC1
A. 1.66 µM

Q. Suppose we examine the compound Cc1ccc2c(c1C)C(=O)C1(Cc3cc4c(cc3C1=O)CCC4)C2 (centres undefined) ; what TGI value has been reported?
A. > 100 µM

Q. Can you look up the measured TGI of CC(=O)O[C@H]1C(=O)[C@@]2(C)C([C@H](OC(=O)c3ccccc3)[C@]3(O)C[C@H](OC(=O)[C@H](O)[C@@H](NC(=O)c4ccccc4)c4ccccc4)C(C)=C1C3(C)C)[C@]1(OC(C)=O)CO[C@@H]1C[C@@H]2O (some centres undefined) for me?
A. 0.0272 µM

Q. Quick one: TGI for COc1ccc2nc(NC(=O)/C(C#N)=C/c3ccccc3)sc2c1 ?
A. > 100 µM
